Reference for the values: paper PMC12040169

# experiment: in vitro
# condition_set: human, hela cells, % viability
# Lookup of reported viability at 28.5 h, 10 µM keyed by entry

molecule: O=C(N[C@H]1CCN2C(=O)N(c3cccc4nsnc34)C(=O)[C@@H]2C1)c1ccnc(Cl)c1
measurement_units: %
viability at 28.5 h, 10 µM: 91.2

molecule: CC(=O)Nc1cc(C(=O)CSc2nnnn2-c2ccc(C)c(C)c2)ccc1O
measurement_units: %
viability at 28.5 h, 10 µM: 90.9

molecule: COC(=O)[C@H]1CCc2ccccc2N1C(=O)C(C)C
measurement_units: %
viability at 28.5 h, 10 µM: 100

molecule: Cc1nnc(SCC(=O)n2c3c(c4ccccc42)CCCC3)n1C
measurement_units: %
viability at 28.5 h, 10 µM: 111

molecule: Cc1cccc(-c2noc(C)c2C(=O)NCCn2ccc(C)n2)c1
measurement_units: %
viability at 28.5 h, 10 µM: 96.4

molecule: O=C(CN1CCCCC1)N1CCCC1c1nc2ccccc2[nH]1 (stereo not drawn)
measurement_units: %
viability at 28.5 h, 10 µM: 104

molecule: CC(C)C(=O)NC(NC(=S)Nc1cccc2cccnc12)C(Cl)(Cl)Cl (stereo not drawn)
measurement_units: %
viability at 28.5 h, 10 µM: 90

molecule: O=c1oc(-c2cccc(F)c2)nc2ccc(Cc3ccc4nc(-c5cccc(F)c5)oc(=O)c4c3)cc12
measurement_units: %
viability at 28.5 h, 10 µM: 120

molecule: O=C1Cc2c(ccc3ccccc23)C2(CCN(CCCC(F)(F)F)CC2)N1
measurement_units: %
viability at 28.5 h, 10 µM: 89.6
